# credit: PubChem BioAssay (NCI)

- Test system: HS 578T breast
- assay-notes: NCI-60 one-dose screen, 48 h (100 = growth as untreated, 0 = no growth, -100 = all killed)
- study-conditions: 10 µM unless noted
Compounds without any hit were thinned out: in the full panel of roughly 83,000, 20% have a hit.
Quick rule: growth of at least 90% means MET, below that means NOT MET.

>>> print(df.to_string())
                                    molecule    assay_target  category_label
 0  N#Cc1cccc(NC(=O)c2cc(-c3ccc(F)cc3F)ccc2O)c1  HS 578T breast         NOT MET
 1       CCOC(=O)c1sc2ncc(-c3ccc(C)cc3)n2c1C  HS 578T breast             MET
 2  CC1CN(C2CCCCC2)C(=S)N(c2ccccc2)C1=O (stereo not given)  HS 578T breast             MET
 3  FC(F)(F)c1cc(Nc2ccc3c(OCCCN4CCOCC4)cccc3n2)ccc1Cl  HS 578T breast         NOT MET
 4  CN1CCN(Cc2ccc(NC(=O)c3cncc(C#Cc4cnccc4C#N)c3)cc2C(F)(F)F)CC1  HS 578T breast         NOT MET
 5  O=C1COCCN1c1ccc(NCc2cn(C(=O)c3ccc(Cl)cc3)c3ccccc23)cc1  HS 578T breast         NOT MET
 6  CC1Cc2c(ncn3c(-c4ccc(F)cc4)nnc23)N(C)c2ccccc21 (stereo not given)  HS 578T breast         NOT MET
 7  Cc1ccc(NC2=C(Cl)C(=O)c3nc(C)ccc3C2=O)cc1  HS 578T breast         NOT MET
 8  CCOC(=O)c1[nH]c(C)c(C(=O)OCc2ccccc2C#N)c1C  HS 578T breast         NOT MET
 9  Brc1ccc2[nH]cc(-c3nc(-c4c[nH]c5ccncc45)cs3)c2c1  HS 578T breast         NOT MET
10  CN(C(=O)NCc1cccc(F)c1Cl)[C@H](COC(=O)Nc1cc2ccccc2cn1)CC(O)CO (stereo not given in full)  HS 578T breast         NOT MET
11    COc1ccc2sc3c(NCCO)nc4ccccc4c3c(=O)c2c1  HS 578T breast             MET
12  C[N+]1=C(/C=C/c2ccc(O)c3ncccc23)C(C)(C)c2ccccc21  HS 578T breast         NOT MET
13  Cn1cc(-c2cc3ncnc(Nc4ccc(CC(=O)Nc5cc(C(C)(C)C)on5)cc4)c3s2)cn1  HS 578T breast         NOT MET
14  Cc1nc2ccccc2c(/C=C/c2ccc(Cl)cc2)c1C(=O)/C=C/c1cccs1  HS 578T breast         NOT MET
15  CC1Cc2ccccc2N1NC(=O)c1ccc(Cl)c(S(N)(=O)=O)c1 (stereo not given)  HS 578T breast             MET
16  Cc1ccc(-c2nc3c(c(-c4ccccc4)nn3-c3ccccc3)c(-c3ccc(O)cc3)c2C#N)cc1  HS 578T breast         NOT MET
17    Cc1ccc2sc3c(NCCCN)nc4ccccc4c3c(=O)c2c1  HS 578T breast         NOT MET
18     CCOC(=O)Nc1ccc(C(=O)/C=C/c2ccccc2)cc1  HS 578T breast             MET
19  Brc1c[n+](Cc2ccc3ccccc3c2)cn1Cc1ccc2ccccc2c1  HS 578T breast         NOT MET
20  COc1cc2oc(-c3ccc(O)cc3)cc(=O)c2c(O)c1-c1c(OC)cc(O)c2c(=O)cc(-c3ccc(O)cc3)oc12  HS 578T breast         NOT MET
21                COc1cc(CCCO)c(OC)c(OC)c1OC  HS 578T breast             MET
22  COc1ccc(-c2csc(NC(=O)N3CCN(c4cc5c(cc4F)c(=O)c(C(=O)O)cn5C4CC4)CC3)n2)cc1  HS 578T breast         NOT MET
23    COc1ccc(/C=C(\C#N)n2nnc3c(F)cccc32)cc1  HS 578T breast         NOT MET
24  Cc1ccc(C(CC(=O)O)c2c(C)[nH][nH]c2=O)cc1 (stereo not given)  HS 578T breast             MET
25  COc1cc2cc(Oc3ccc(NC(=O)Nc4ccc(Cl)c(C(F)(F)F)c4)cc3)c(C)nc2cc1OCCN1CCOCC1  HS 578T breast         NOT MET
